# study_target: Vasopressin V1b receptor (Homo sapiens)
# Sequence (P47901 whole entry): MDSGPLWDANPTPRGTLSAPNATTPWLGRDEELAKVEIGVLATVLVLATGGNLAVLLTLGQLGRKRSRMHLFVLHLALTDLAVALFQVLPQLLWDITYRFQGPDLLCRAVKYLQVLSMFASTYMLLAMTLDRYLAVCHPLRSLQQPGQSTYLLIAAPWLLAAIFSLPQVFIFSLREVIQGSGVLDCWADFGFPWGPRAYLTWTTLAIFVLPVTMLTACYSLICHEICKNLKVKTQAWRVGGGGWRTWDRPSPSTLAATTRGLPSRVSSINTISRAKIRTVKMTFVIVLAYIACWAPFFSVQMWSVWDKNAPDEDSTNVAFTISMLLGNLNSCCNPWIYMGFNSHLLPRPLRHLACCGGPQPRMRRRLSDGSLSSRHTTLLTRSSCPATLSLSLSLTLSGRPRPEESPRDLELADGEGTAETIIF
# protocol_description: Agonist activity at human V1b receptor expressed in CHO cells assessed as calcium mobilization measured after 30 mins by Fluo-4-AM dye based FLIPR assay
Bridge positions count the residues as written; N and C are the ends. Square brackets hold non-standard residues; d marks the D form. Peptide text beside a SMILES is read from it. Mpa = O=C(O)CCS
quantity_kind: EC50

Examples with answers:
So what does the record say about EC50 for CC[C@H](C)[C@@H]1NC(=O)[C@H](Cc2ccc(O)cc2)NC(=O)CCSSC[C@@H](C(=O)N[C@@H](CCCNC(=N)N)C(=O)N[C@@H](CC(C)C)C(=O)NCC(N)=O)NC(=O)[C@H](CC(N)=O)NC(=O)[C@H](CCC(N)=O)NC1=O ([Mpa]YIQNCRLG-NH2; disulfide 1-6) ? > 100 nM

So what does the record say about EC50 for `S` ? > 100 nM

So what does the record say about EC50 for CC[C@H](C)[C@@H]1NC(=O)[C@H](Cc2ccc(O)cc2)NC(=O)CCSSC[C@@H](C(=O)N2CCC[C@H]2C(=O)N[C@@H](CC(C)C)C(=O)NCC(N)=O)NC(=O)[C@H](CC(N)=O)NC(=O)[C@H](CO)NC1=O ([Mpa]YISNCPLG-NH2; disulfide 1-6) ? 8.9 nM

Further cases:
So what does the record say about EC50 for CC[C@H](C)[C@@H]1NC(=O)[C@H](Cc2ccc(O)cc2)NC(=O)CCSSC[C@@H](C(=O)N2CCC[C@H]2C(=O)N[C@@H](CC(C)C)C(=O)N[C@@H](CCC(=O)O)C(N)=O)NC(=O)[C@H](CC(N)=O)NC(=O)[C@H](CCC(N)=O)NC1=O ([Mpa]YIQNCPLE-NH2; disulfide 1-6) ? > 100 nM

So what does the record say about EC50 for CC(C)C[C@H](NC(=O)[C@@H]1CCCN1C(=O)[C@@H]1CSSCCC(=O)N[C@@H](Cc2ccc(O)cc2)C(=O)N[C@@H](CCCNC(=N)N)C(=O)N[C@@H](CCC(N)=O)C(=O)N[C@@H](CC(N)=O)C(=O)N1)C(=O)NCC(N)=O ([Mpa]YRQNCPLG-NH2; disulfide 1-6) ? > 100 nM

----------
# study_target: Vasopressin V1a receptor (Homo sapiens, UniProt P37288)
# Sequence (P37288 whole entry): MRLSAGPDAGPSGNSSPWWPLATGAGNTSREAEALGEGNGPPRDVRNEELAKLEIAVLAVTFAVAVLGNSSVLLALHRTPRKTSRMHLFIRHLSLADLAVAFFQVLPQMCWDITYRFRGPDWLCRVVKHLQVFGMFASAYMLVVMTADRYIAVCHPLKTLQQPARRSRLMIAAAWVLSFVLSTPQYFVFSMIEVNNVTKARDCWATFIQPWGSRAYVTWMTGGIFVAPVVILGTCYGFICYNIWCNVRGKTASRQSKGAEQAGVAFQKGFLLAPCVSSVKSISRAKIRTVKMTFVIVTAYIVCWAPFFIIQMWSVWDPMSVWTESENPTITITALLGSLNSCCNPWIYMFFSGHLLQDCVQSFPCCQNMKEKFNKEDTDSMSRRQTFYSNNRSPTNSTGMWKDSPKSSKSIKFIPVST
# protocol_description: Agonist activity at human V1a receptor expressed in CHO cells assessed as calcium mobilization measured after 30 mins by Fluo-4-AM dye based FLIPR assay
quantity_kind: EC50 (µM)
Respond numerically; units are µM and should not be typed.

So what does the record say about EC50 for `CC[C@H](C)[C@@H]1NC(=O)[C@H](Cc2ccc(O)cc2)NC(=O)CCSSC[C@@H](C(=O)N2CCC[C@H]2C(=O)N[C@@H](CC(C)C)C(=O)NNC(N)=O)NC(=O)[C@H](CC(N)=O)NC(=O)[C@H](CCC(N)=O)NC1=O` ? 0.07

----------
# Species: Homo sapiens
# protocol_description: Selectivity ratio of EC50 for human V1a receptor to EC50 for human OTR
Numbered stars: 1 amine (or outer) side, 2 acyl side, 3 side chain; on linkers, the order of the positions; unused ones are H or OH. Bridge positions count the residues as written; N and C are the ends. Square brackets hold non-standard residues; d marks the D form. Peptide text beside a SMILES is read from it. Hyp = O=C(O)[C@@H]1C[C@@H](O)CN1; tBuAla = CC(C)(C)C[C@H](N)C(=O)O; Suc = O=C(CCC(=O)[*:2])[*:1]; X1 = O=C(CCC[*:2])[*:1]; Dap = NC[C@H](N)C(=O)O; azaGly = NNC(=O)O; Mpa = O=C(O)CCS
Below, each entry is listed alongside its reported Ratio EC50.

So what does the record say about Ratio EC50 for CC[C@H](C)[C@@H]1NC(=O)[C@H](Cc2ccc(O)cc2)NC(=O)CCSSC[C@@H](C(=O)N2CCC[C@H]2C(=O)N[C@@H](CC(C)C)C(=O)N[C@@H](C)C(N)=O)NC(=O)[C@H](CC(N)=O)NC(=O)[C@H](CCC(N)=O)NC1=O ([Mpa]YIQNCPLA-NH2; disulfide 1-6) ? > 10

So what does the record say about Ratio EC50 for CC[C@H](C)[C@@H]1NC(=O)[C@H](Cc2ccc(O)cc2)NC(=O)CCC(=O)NC[C@@H](C(=O)N2C[C@H](O)C[C@H]2C(=O)N[C@@H](CC(C)C)C(=O)NCC(N)=O)NC(=O)[C@H](CC(N)=O)NC(=O)[C@H](CCC(N)=O)NC1=O (YIQN[Dap][Hyp]LG-NH2; linker N-5 via Suc) ? > 1000

So what does the record say about Ratio EC50 for CC[C@H](C)[C@@H]1NC(=O)[C@H](Cc2ccc(O)cc2)NC(=O)CCSSC[C@@H](C(=O)N2CCC[C@H]2C(=O)N[C@@H](CC(C)C)C(=O)NCC(N)=O)NC(=O)[C@H](CCC(=O)O)NC(=O)[C@H](CCC(N)=O)NC1=O ([Mpa]YIQECPLG-NH2; disulfide 1-6) ? > 1

So what does the record say about Ratio EC50 for CC[C@H](C)[C@@H]1NC(=O)[C@H](Cc2ccc(O)cc2)NC(=O)CCSSC[C@@H](C(=O)N[C@@H](CO)C(=O)N[C@@H](CC(C)C)C(=O)NCC(N)=O)NC(=O)[C@H](CC(N)=O)NC(=O)[C@H](CCC(N)=O)NC1=O ([Mpa]YIQNCSLG-NH2; disulfide 1-6) ? > 1000

So what does the record say about Ratio EC50 for CC[C@H](C)[C@@H]1NC(=O)[C@H](Cc2ccc(O)cc2)NC(=O)CCC(=O)NC[C@@H](C(=O)N2C[C@H](O)C[C@H]2C(=O)N[C@@H](CC(C)C)C(=O)NNC(N)=O)NC(=O)[C@H](CC(N)=O)NC(=O)[C@H](CCC(N)=O)NC1=O (YIQN[Dap][Hyp]L[azaGly]-NH2; linker N-5 via Suc) ? > 1000

So what does the record say about Ratio EC50 for CC[C@H](C)[C@@H]1NC(=O)[C@H](Cc2ccc(O)cc2)NC(=O)CCSSC[C@@H](C(=O)NCC(=O)N[C@@H](CC(C)C)C(=O)NCC(N)=O)NC(=O)[C@H](CC(N)=O)NC(=O)[C@H](CCC(N)=O)NC1=O ([Mpa]YIQNCGLG-NH2; disulfide 1-6) ? > 1000

So what does the record say about Ratio EC50 for CC[C@H](C)[C@@H]1NC(=O)[C@H](Cc2ccc(O)cc2)NC(=O)CCSSC[C@@H](C(=O)N2CCC[C@H]2C(=O)N[C@H](C(=O)NCC(N)=O)C(C)C)NC(=O)[C@H](CC(N)=O)NC(=O)[C@H](CCC(N)=O)NC1=O ([Mpa]YIQNCPVG-NH2; disulfide 1-6) ? 360

So what does the record say about Ratio EC50 for CC[C@H](C)[C@@H]1NC(=O)[C@H](Cc2ccc(O)cc2)NC(=O)CCSSC[C@@H](C(=O)N[C@@H](CC(C)C)C(=O)N[C@@H](CC(C)C)C(=O)NCC(N)=O)NC(=O)[C@H](CC(N)=O)NC(=O)[C@H](CCC(N)=O)NC1=O ([Mpa]YIQNCLLG-NH2; disulfide 1-6) ? > 10

So what does the record say about Ratio EC50 for CC[C@H](C)[C@@H]1NC(=O)[C@H](Cc2ccc(O)cc2)NC(=O)CCCSC[C@@H](C(=O)N2C[C@H](O)C[C@H]2C(=O)N[C@@H](CC(C)(C)C)C(=O)NCC(N)=O)NC(=O)[C@H](CC(N)=O)NC(=O)[C@H](CCC(N)=O)NC1=O (YIQNC[Hyp][tBuAla]G-NH2; linker N-5 via X1) ? > 10000

----------
# study_target: Oxytocin receptor (Homo sapiens, UniProt P30559)
# Sequence (P30559 whole entry): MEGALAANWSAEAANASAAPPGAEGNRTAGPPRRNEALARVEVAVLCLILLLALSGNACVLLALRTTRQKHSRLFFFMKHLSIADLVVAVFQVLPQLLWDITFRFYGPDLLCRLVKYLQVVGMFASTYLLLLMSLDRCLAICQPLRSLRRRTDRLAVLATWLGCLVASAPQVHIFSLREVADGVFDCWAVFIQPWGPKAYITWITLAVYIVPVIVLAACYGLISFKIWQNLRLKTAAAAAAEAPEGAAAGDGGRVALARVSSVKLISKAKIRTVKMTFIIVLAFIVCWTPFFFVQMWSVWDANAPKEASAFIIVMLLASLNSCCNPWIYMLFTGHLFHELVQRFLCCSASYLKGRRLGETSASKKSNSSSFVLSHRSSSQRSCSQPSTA
# protocol_description: Agonist activity at human OTR expressed in CHO cells assessed as calcium mobilization measured after 30 mins by Fluo-4-AM dye based FLIPR assay
Bridge positions count the residues as written; N and C are the ends. Square brackets hold non-standard residues; d marks the D form. Peptide text beside a SMILES is read from it. Mpa = O=C(O)CCS
quantity_kind: EC50 (nM)
Respond numerically; units are nM and should not be typed.

So what does the record say about EC50 for CC[C@H](C)[C@@H]1NC(=O)[C@H](Cc2ccc(O)cc2)NC(=O)CCSSC[C@@H](C(=O)N[C@@H](C)C(=O)N[C@@H](CC(C)C)C(=O)NCC(N)=O)NC(=O)[C@H](CC(N)=O)NC(=O)[C@H](CCC(N)=O)NC1=O ([Mpa]YIQNCALG-NH2; disulfide 1-6) ? 0.07

Would you kindly look at the next entry?
So what does the record say about EC50 for `CC[C@H](C)[C@@H]1NC(=O)[C@H](Cc2ccc(O)cc2)NC(=O)CCSSC[C@@H](C(=O)N2C[C@@H](O)C[C@H]2C(=O)N[C@@H](CC(C)C)C(=O)NCC(N)=O)NC(=O)[C@H](CC(N)=O)NC(=O)[C@H](CCC(N)=O)NC1=O` ? 0.007
